Where do the numbers come from? From patent US20160319277A1.

# Test system: HEK-CMV-Luc2-Hygro cells
# Measurement description: High-throughput genome-wide siRNA screen and validation screen for luciferase expression
# Format: cell-based, human
# Cond: Table 3; per cell luciferase yield relative to negative control, primary screen, 72 h
Could you please report measured per_cell for the items listed next?
The reply should be a number, written without any unit.

### Prompt Give its per_cell value. Item: 84 (GGCUGUACAUAGUCCUUUUTT; chemistry not given here; listed as Homo sapiens) [compound 84]
### Response 238.5

### Prompt I'd like to know its per_cell. The substance in question is 93 (CAGCCUCACCAAGCACAAATT; chemistry not given here; listed as Homo sapiens) [compound 93]
### Response 167.4

### Prompt I would be grateful if you could share the reported per_cell for 75 (GCUCAUCGACAUCAAAGUUTT; chemistry not given here; listed as Homo sapiens) [compound 75] .
### Response 170.1

### Prompt Form field: reported per_cell of 82 (GUCCUAUCACCGUAUCUUATT; chemistry not given here; listed as Homo sapiens) [compound 82]
### Response 266.6

### Prompt # input substance: 62 (AGGUCAAUGUGACUUUCCATT; chemistry not given here; listed as Homo sapiens) [compound 62] ; wanted: its per_cell
### Response 161.8

### Prompt # per_cell lookup, item 69 (CCCUCCUACUAUUACCCGUTT; chemistry not given here; listed as Homo sapiens) [compound 69]
### Response 163

### Prompt Request the reported per_cell associated with 66 (GCAACAGAAUCGAGCAAGATT; chemistry not given here; listed as Homo sapiens) [compound 66]
### Response 154.3

### Prompt I am curious: what per_cell value has been reported for 57 (GAACGAGUACAGCAAUAUATT; chemistry not given here; listed as Homo sapiens) [compound 57] ?
### Response 140.9

### Prompt Endpoint output: per_cell of 55 (CAACGGGACUAUUAUGAUATT; chemistry not given here; listed as Homo sapiens) [compound 55] . Value?
### Response 163.4

### Prompt I would be grateful if you could share the reported per_cell for 54 (GCAUCUGUCCGAUCGCUCUTT; chemistry not given here; listed as Homo sapiens) [compound 54] .
### Response 143.9

### Prompt Would you kindly share the measured per_cell for 58 (ACAGGUCUUUAUCAAAGCATT; chemistry not given here; listed as Homo sapiens) [compound 58] ?
### Response 3.426

### Prompt Given the entry 53 (GAACAAAAUAGACCUCUUATT; chemistry not given here; listed as Homo sapiens) [compound 53] , report its measured per_cell.
### Response 162.7

### Prompt Returns the measured per_cell for the input substance. Input: 42 (CAAGUCACCUGUUACCUCATT; chemistry not given here; listed as Homo sapiens) [compound 42]
### Response 171.8

### Prompt Consider the substance 49 (CGAAACUUGUCAACGGGAATT; chemistry not given here; listed as Homo sapiens) [compound 49] and give its measured per_cell.
### Response 179.2

### Prompt Reported per_cell, substance 92 (CCAGUUCGACCUGAACAAATT; chemistry not given here; listed as Homo sapiens) [compound 92] : ____
### Response 176

### Prompt Please look up its per_cell: 38 (GCAGUGGACAUAGAAGAGATT; chemistry not given here; listed as Homo sapiens) [compound 38]
### Response 140.7

### Prompt Consider the substance 88 (GAGCAGAGAUCAUAACCAATT; chemistry not given here; listed as Homo sapiens) [compound 88] and give its measured per_cell.
### Response 141.1

### Prompt Given 43 (GCUAAGUCUUUUCCACAGUTT; chemistry not given here; listed as Homo sapiens) [compound 43] , state its recorded per_cell.
### Response 155.4

### Prompt Dear colleague, I am looking for the recorded per_cell of the following substance: 83 (GCGGAAAAGGUAUCCCUCATT; chemistry not given here; listed as Homo sapiens) [compound 83]
### Response 184.6

### Prompt Quick one: per_cell of 60 (GGCGAAUGCUCCUGACUAATT; chemistry not given here; listed as Homo sapiens) [compound 60] ?
### Response 157

### Prompt Which per_cell is listed for 64 (GAUCGUUUGAGAGAACAAATT; chemistry not given here; listed as Homo sapiens) [compound 64] ?
### Response 210.3

### Prompt Entry under review: 89 (GGAUCACGCAGCUCAAGAUTT; chemistry not given here; listed as Homo sapiens) [compound 89] . Reported per_cell?
### Response 161.6

### Prompt Data request, read-out per_cell, for 76 (CUUUUAAUGUUAAACUACATT; chemistry not given here; listed as Homo sapiens) [compound 76]
### Response 133.6

### Prompt Requested field: per_cell. Item: 56 (CAACGGGACUAUUAUGAUATT; chemistry not given here; listed as Homo sapiens) [compound 56]
### Response 163.5

### Prompt Param item = 51 (CCAGCGAUACAACUCCUAUTT; chemistry not given here; listed as Homo sapiens) [compound 51] ; retrieve measured per_cell.
### Response 176.8

### Prompt Fill in the blank: the reported per_cell of 48 (GCAAUGCUUGCAAAACUCATT; chemistry not given here; listed as Homo sapiens) [compound 48] is ____.
### Response 189.3

### Prompt Given the entry 71 (GAUUACUUCUUGACUAUCATT; chemistry not given here; listed as Homo sapiens) [compound 71] , report its measured per_cell.
### Response 150.8

---

# System: HEK-CMV-Luc2-Hygro cells
# Measurement description: High-throughput genome-wide siRNA screen and validation screen for luciferase expression
# Type: cell-based, human
# Cond: Table 4; primary screen, 72 h, negative control = 100%
Consider the following substances; for each one, report its per cell luciferase yield (%).
Field: numeric (%). Do not append units.

### Prompt Which per cell luciferase yield (%) is reported for this substance? 206 (GCUCCUCUGUUACCACAGATT; chemistry not given here; listed as Homo sapiens) [compound 206]
### Response 179.268

### Prompt Recorded per cell luciferase yield (%) of 125 (GGAACACUAUGAUGAGUUUTT; chemistry not given here; listed as Homo sapiens) [compound 125] , please.
### Response 240.287

### Prompt May I ask what per cell luciferase yield (%) has been recorded for 129 (GCUAUUUCCAGCGAAUAUATT; chemistry not given here; listed as Homo sapiens) [compound 129] ?
### Response 244.722

### Prompt If you can, please state the reported per cell luciferase yield (%) value of 212 (GAGCAGAGAUCAUAACCAATT; chemistry not given here; listed as Homo sapiens) [compound 212] .
### Response 141.104

### Prompt // query per cell luciferase yield (%) value for entry 154 (CAACAGUACUUACCGAUGUTT; chemistry not given here; listed as Homo sapiens) [compound 154]
### Response 141.760

### Prompt Which per cell luciferase yield (%) reading was recorded for the substance 135 (CAGGUAGUGUAAGCCCUCATT; chemistry not given here; listed as Homo sapiens) [compound 135] ?
### Response 302.994

### Prompt Data request, read-out per cell luciferase yield (%), for 106 (GCUCAUCGACAUCAAAGUUTT; chemistry not given here; listed as Homo sapiens) [compound 106]
### Response 170.088

### Prompt # lookup: per cell luciferase yield (%) of 152 (CGAUGUUCGUGGACAUUCUTT; chemistry not given here; listed as Homo sapiens) [compound 152]
### Response 234.608

### Prompt # per cell luciferase yield (%) lookup, item 196 (ACAGGUCUUUAUCAAAGCATT; chemistry not given here; listed as Homo sapiens) [compound 196]
### Response 153.426

### Prompt What measured per cell luciferase yield (%) goes with 167 (CCUGGACAGUUUGAAGCAATT; chemistry not given here; listed as Homo sapiens) [compound 167] ?
### Response 174.946

### Prompt Quick check: per cell luciferase yield (%) of 95 (CAAGUCACCUGUUACCUCATT; chemistry not given here; listed as Homo sapiens) [compound 95] ?
### Response 171.805

### Prompt Value lookup for per cell luciferase yield (%); key = 122 (AGGGCUAUCUGGUAUCUGUTT; chemistry not given here; listed as Homo sapiens) [compound 122]
### Response 283.281

### Prompt Look up per cell luciferase yield (%) for this substance: 172 (GGAUAUUGGAGGCUAGUCATT; chemistry not given here; listed as Homo sapiens) [compound 172]
### Response 157.868

### Prompt # per cell luciferase yield (%) lookup, item 186 (CGAAACUUGUCAACGGGAATT; chemistry not given here; listed as Homo sapiens) [compound 186]
### Response 179.207

### Prompt Entry 165 (AGGUCAAUGUGACUUUCCATT; chemistry not given here; listed as Homo sapiens) [compound 165] : reported per cell luciferase yield (%) = ?
### Response 161.785

### Prompt What does the record list as per cell luciferase yield (%) for 137 (GAACCGUCGCUACAAGACATT; chemistry not given here; listed as Homo sapiens) [compound 137] ?
### Response 212.905

### Prompt Reported per cell luciferase yield (%), substance 175 (CAUUGGUGUUGACAAUCCATT; chemistry not given here; listed as Homo sapiens) [compound 175] : ____
### Response 189.850

### Prompt Need per cell luciferase yield (%), item 142 (AAGUCAACAUAGCCCGAAATT; chemistry not given here; listed as Homo sapiens) [compound 142]
### Response 145.707

### Prompt Data request, read-out per cell luciferase yield (%), for 99 (CCCGGAUACUUCUGAAGAATT; chemistry not given here; listed as Homo sapiens) [compound 99]
### Response 227.884

### Prompt Which per cell luciferase yield (%) is listed for 144 (GGAUCACGCAGCUCAAGAUTT; chemistry not given here; listed as Homo sapiens) [compound 144] ?
### Response 161.634

### Prompt I am curious: what per cell luciferase yield (%) value has been reported for 163 (CCAGCGAUACAACUCCUAUTT; chemistry not given here; listed as Homo sapiens) [compound 163] ?
### Response 176.821

### Prompt Find the recorded per cell luciferase yield (%) belonging to 190 (CUGUGGAAAAGAUACCGUATT; chemistry not given here; listed as Homo sapiens) [compound 190] and report it.
### Response 152.850

### Prompt Requested read-out: per cell luciferase yield (%). Entry: 118 (UGUGGACUGAGGUACCCAATT; chemistry not given here; listed as Homo sapiens) [compound 118]
### Response 247.842

### Prompt Consider the substance shown here: 155 (GCCUUGCUCCGAACCUUCATT; chemistry not given here; listed as Homo sapiens) [compound 155] What is its recorded per cell luciferase yield (%)?
### Response 169.972

### Prompt # query: per cell luciferase yield (%) of entry 140 (GUCCGAGUGUGGUUCUGUATT; chemistry not given here; listed as Homo sapiens) [compound 140]
### Response 180.401

### Prompt Suppose we examine the substance 194 (CAUCAAGCCCUGUAAGUCUTT; chemistry not given here; listed as Homo sapiens) [compound 194] ; what per cell luciferase yield (%) value has been reported?
### Response 163.431
